biological target: PfPPase-VP1 (in membrane) (Plasmodium falciparum, UniProt Q8IKR1); assay: Inhibition of PfPPase-VP1 in isolated membranes; type: biochemical; conditions: isolated P. falciparum membranes; preliminary studies
Sequence (Q8IKR1 entry or part of it): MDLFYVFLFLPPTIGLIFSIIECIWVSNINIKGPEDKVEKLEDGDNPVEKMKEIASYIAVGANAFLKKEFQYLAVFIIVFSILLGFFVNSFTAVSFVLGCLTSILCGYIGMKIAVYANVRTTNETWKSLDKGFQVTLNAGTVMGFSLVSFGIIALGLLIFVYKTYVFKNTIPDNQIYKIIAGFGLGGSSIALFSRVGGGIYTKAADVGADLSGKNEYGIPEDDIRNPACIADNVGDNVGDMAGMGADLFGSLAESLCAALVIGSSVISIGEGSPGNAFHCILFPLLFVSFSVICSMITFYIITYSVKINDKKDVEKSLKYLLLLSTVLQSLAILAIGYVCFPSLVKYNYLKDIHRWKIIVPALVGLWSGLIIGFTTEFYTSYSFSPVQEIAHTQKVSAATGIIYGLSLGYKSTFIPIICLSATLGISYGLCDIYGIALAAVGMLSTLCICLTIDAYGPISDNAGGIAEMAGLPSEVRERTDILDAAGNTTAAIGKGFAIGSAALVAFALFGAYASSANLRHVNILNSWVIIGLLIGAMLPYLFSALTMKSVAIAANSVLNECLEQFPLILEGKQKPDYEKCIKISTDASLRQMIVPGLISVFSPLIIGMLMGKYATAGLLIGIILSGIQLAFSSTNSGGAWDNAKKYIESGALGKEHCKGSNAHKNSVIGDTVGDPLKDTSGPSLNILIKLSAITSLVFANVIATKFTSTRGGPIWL
pIC50: −log10 of the molar value.
Metric: pIC50

Need pIC50, item `Nc1nc2ccc(CNC(=O)c3cc4ccccc4[nH]3)cc2s1`
~4.10

* * *

target: PfPPase-VP1 (in membrane) (Plasmodium falciparum); assay: Inhibition of PfPPase-VP1 in isolated membranes; format: biochemical; details: PfPPase-VP1 expressed in insect cell baculovirus system
Metric: pIC50
// pIC50 is dimensionless: -log10 of concentration (M)

Need pIC50, item Nc1nc2ccc(CNC(=O)c3cc4ccccc4[nH]3)cc2s1 [ATC]
4.08

* * *

target: TmPPase (Thermotoga maritima, UniProt Q9S5X0); construct: His; made in house; host or cells: Saccharomyces cerevisiae strain BJ1991; test: TmPPase activity inhibition, molybdenum blue 96-well plate assay; type: biochemical; conditions: purified TmPPase in DDM, 71°C, 2 min
Sequence (Q9S5X0 whole entry): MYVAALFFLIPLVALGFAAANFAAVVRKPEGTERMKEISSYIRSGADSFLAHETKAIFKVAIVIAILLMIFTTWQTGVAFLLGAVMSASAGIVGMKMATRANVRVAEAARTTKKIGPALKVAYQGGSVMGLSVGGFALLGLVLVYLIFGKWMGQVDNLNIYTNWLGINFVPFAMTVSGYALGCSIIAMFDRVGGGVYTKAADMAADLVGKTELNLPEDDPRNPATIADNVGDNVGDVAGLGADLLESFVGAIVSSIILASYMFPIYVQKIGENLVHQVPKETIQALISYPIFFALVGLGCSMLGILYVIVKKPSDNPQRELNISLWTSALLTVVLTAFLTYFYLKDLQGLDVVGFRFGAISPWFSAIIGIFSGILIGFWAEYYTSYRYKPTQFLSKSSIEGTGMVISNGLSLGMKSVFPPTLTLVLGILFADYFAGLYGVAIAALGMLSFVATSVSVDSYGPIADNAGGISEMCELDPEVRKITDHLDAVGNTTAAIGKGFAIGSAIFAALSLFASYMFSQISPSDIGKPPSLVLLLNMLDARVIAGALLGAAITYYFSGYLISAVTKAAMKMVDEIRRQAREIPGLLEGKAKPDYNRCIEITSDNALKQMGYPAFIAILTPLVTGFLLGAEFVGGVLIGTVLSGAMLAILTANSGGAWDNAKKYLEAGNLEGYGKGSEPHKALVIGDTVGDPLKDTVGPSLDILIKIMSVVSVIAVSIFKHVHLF
pIC50 listing for selected compounds.
// pIC50 is dimensionless: -log10 of concentration (M)

Nc1nc2ccc(CNC(=O)c3cc4ccccc4[nH]3)cc2s1 ... 5.77

Need pIC50, item `Nc1nc2ccc(CNC(=O)c3cc4cccc(Br)c4[nH]3)cc2s1`
4.67

* * *

biological target: TmPPase (Thermotoga maritima, UniProt Q9S5X0); construct: His; assay: TmPPase activity inhibition, molybdenum blue 96-well plate assay; settings: purified TmPPase in DDM, 71°C, 2 min
IC50 listing for selected compounds.

Nc1nc2ccc(CNC(=O)c3cccs3)cc2s1 ... > 500 µM

Need IC50, item `Nc1nc2ccc(CNC(=O)c3nc4ccccc4[nH]3)cc2s1`
> 500 µM

Lookup `Nc1nc2ccc(CNC(=O)c3ccccc3)cc2s1`
> 500 µM
